Target: RPA (RPA70/RPA32/RPA14) (Saccharomyces cerevisiae, UniProt P22336;P26754;P26755 1-621;1-273;1-122)
Sequence (P22336 whole entry, chain 1 of 3): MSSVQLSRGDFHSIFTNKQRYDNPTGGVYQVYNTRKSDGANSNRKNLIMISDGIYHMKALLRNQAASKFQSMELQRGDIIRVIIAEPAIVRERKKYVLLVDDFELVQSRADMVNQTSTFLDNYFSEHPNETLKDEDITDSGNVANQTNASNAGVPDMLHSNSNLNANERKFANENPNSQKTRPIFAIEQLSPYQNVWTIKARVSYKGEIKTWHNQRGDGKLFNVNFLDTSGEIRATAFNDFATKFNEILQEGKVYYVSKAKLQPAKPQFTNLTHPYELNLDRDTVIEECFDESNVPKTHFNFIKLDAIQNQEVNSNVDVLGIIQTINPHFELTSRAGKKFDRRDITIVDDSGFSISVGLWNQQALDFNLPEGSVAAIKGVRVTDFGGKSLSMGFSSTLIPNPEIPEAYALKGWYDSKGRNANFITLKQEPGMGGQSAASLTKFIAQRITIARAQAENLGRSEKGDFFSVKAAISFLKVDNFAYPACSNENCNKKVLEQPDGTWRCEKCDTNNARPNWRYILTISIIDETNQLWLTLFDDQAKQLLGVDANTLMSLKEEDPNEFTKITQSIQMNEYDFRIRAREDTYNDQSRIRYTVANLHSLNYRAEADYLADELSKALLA
Sequence (P26754 whole entry, chain 2 of 3): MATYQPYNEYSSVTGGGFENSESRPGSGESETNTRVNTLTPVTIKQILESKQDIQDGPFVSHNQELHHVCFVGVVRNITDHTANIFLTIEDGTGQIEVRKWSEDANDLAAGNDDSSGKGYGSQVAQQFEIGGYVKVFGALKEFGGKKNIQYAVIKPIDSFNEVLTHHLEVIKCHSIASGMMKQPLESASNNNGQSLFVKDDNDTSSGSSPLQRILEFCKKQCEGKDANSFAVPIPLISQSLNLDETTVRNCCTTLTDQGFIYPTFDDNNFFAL
Sequence (P26755 whole entry, chain 3 of 3): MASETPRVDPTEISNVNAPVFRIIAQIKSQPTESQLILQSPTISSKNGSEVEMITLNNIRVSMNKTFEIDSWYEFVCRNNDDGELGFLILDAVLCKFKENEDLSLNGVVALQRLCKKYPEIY
Experiment: EMSA; no Rtt105; 5 mM MgCl2; stoichiometric, apparent Kd; EMSA: 25 mM Tris-Cl pH 7.5, 200 mM NaCl, 5 mM MgCl2, 5% glycerol, 0.05% Tween-20, 25 C; anisotropy/FRET: 30 mM HEPES pH 7.8, 100 mM KCl, 6% glycerol, 5 mM MgCl2, 1 mM bME, 23 C (stopped flow 25 C)
Test Context: protein: recombinant; copies: 1;1;1; label: 5'-Cy5

{"columns": ["Binder", "Kd"],
 "data": [
  ["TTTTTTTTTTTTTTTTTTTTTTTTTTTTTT (ssDNA) [5'-Cy5-(dT)30]", "5 nM"]
]}
